Target: T1, histidine-tagged human uPAR (Sino#10925-H08H) (human, UniProt Q03405 23-303)
T1 construct: also called uPAR-His
Test: BLI (Octet), uPAR on sensor, antibody in solution (avidity)
pKd: −log10 of the molar value.
The entries below are paired with their reported pKd.
Assay Metric: pKd

Binder | Measurement
M8 (antibody, V domains shown, Mouse hybridoma antibody; also called anti-uPAR antibody M8; parental M8) VH: QIQLVQSGPELKKPGETVKISCKASGNTFTDYGMNWVKQSPGKGLKWMGWINTNTGEPTYADDFKGRFAFSLETSASTAYLQINNLKNEDMATYFCAHYSFDYWGQGTTLTVSS VL: DIQMTQSPASLSVSVGQTVTITCRTSENIYSNLAWYQQKPGKSPQLLVYAATNLADGVPSRFSGSGSGTQYSLKINSLQSEDFGSYYCQHFWGTPWTFGGGTKLEIK | > 12.00
M43 (antibody, V domains shown, Mouse hybridoma antibody; also called anti-uPAR antibody M43; parental M43) VH: QVQLQQSGAELARPGASVNLSCKASGYTFTSYGISWVKQRTGQGLEWIGEIYPRSGNTYYNEKFKGKATLTADKSSRTAYMELRSLTSEDSAVYFCAGKDYGSTYADYWGQGTTLTVSS VL: QIVLTQSPAIMSASPGEKVTMTCSASSSVSSRYLHWYQQKSGASPKLWIYGTSNLASGVPARFSGSGSGTSYSLTINSVEAEDAATYYCQQYHSDPLTFGAGTKLELK | > 12.00
M1 (antibody, V domains shown, Mouse hybridoma antibody; also called anti-uPAR antibody M1; parental M1) VH: EVQLQQSGAELVRPGASVKLSCTASGFNIKDEYINWVKQRPEQGLEWIGWIDPENGDTEYASKFQGKATITADTSSNTAYLQLSSLTSEDTAVYYCTGGNYVGWFPYWGQGTLVTVSA VL: QIVLTQSPAIMSASPGEKVTMTCSASSSVSYMHWYQQKSGTSPKRWLYDTSKLASGVPARFSGSGSGTSYSLTISSMEAEDAATYYCQQWSSNPPYTFGGGTKLEIK | > 12.00
